tested on: Vero cells; assay: Cytotoxicity of the compounds for Vero cells (CPE observation, TC50); type: cell-based; conditions: no virus
Reported TC50 (half toxic concentration for Vero cells) values for a set of compounds
Kindly provide the numeric value in µg/mL only, without the unit symbol.

Solved cases (2 shown):
# smiles, valueObserved
measured = [
    ("O=C(Nc1nc2ccccc2s1)c1ccc(N(Cc2ccc(F)cc2)C(=O)[C@H]2O[C@@H]2C(=O)Nc2ccc(Cl)c(Cl)c2)cc1", 1.43),
    ("O=C(Nc1nc2ccccc2s1)c1ccc(N(Cc2ccc(F)cc2)C(=O)[C@H]2O[C@@H]2C(=O)Nc2ccc(F)cc2)cc1", 1.43),
]

For `COc1ccccc1NC(=O)[C@H]1O[C@@H]1C(=O)N(Cc1ccc(F)cc1)c1ccc(C(=O)Nc2nc3ccccc3s2)cc1` , write its TC50 (half toxic concentration for Vero cells).
0.82

---

system: Vero cells; test: Cytotoxicity of the compounds for Vero cells (CPE observation, TC50); type: cell-based; settings: no virus
measurementLabel: TC50 (half toxic concentration for Vero cells) (µg/mL)
Kindly provide the numeric value in µg/mL only, without the unit symbol.

# molecule, displayUnit, valueObserved
measured = [
    ("O=C(Nc1nc2ccccc2s1)c1ccc(N(Cc2ccc(F)cc2)C(=O)[C@H]2O[C@@H]2C(=O)O)cc1 [Compound 16]", "µg/mL", 17.25),
    ("COc1ccc(NC(=O)[C@H]2O[C@@H]2C(=O)N(Cc2ccccc2)c2ccc(C(=O)Nc3nc4ccccc4s3)cc2)cc1OC [Compound 39]", "µg/mL", 32.05),
]

For O=C(Nc1ccc(Cl)cc1)[C@H]1O[C@@H]1C(=O)N(Cc1ccccc1)c1ccccc1 [Compound 12] , write its TC50 (half toxic concentration for Vero cells).
10.68
